molecular target: L7Ae (Archaeoglobus fulgidus (printed A. …, UniProt O29494 1-119)); assay: SPR; SPR: 10 mM HEPES pH 7.4, 150 mM NaCl, 1 mM MgCl2, 0.05% P20, 0.25 mM TCEP, 0.1 mg/ml BSA, 25 ug/ml yeast tRNA, 25 C; EMSA: 10 mM HEPES-KOH pH 7.5, 140 mM KCl, 10 mM NaCl, 1 mM MgCl2, 0.1 mM TCEP, 0.01% Tween-20, 10 ug/ml yeast tRNA (1x of the printed 5x buffer); settings: protein: recombinant; tags: N-term Twin-Strep-tag; C-term 6xHis; hairpin, internal loop
Sequence (O29494 whole entry): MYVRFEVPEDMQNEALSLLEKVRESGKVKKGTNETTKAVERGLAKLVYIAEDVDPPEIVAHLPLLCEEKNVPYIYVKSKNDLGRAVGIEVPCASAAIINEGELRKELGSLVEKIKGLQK
measurement label: Kd (nM)
// note: answer is a bare numeric in nM

Enquiry: Could you share which Kd value was measured for CS1 (structured_RNA) RNA: GGUGGCAGAGAAAGGCGAAAGCCUUGUGAGGCCAUCAAAUCGACGAAAGACACAGAACG ?
Return: 1.49
